Target: NaV1.1 (Homo sapiens (Human))
Test: Sodium Influx Assay (Flux), NaV1.1
Format: cell-based
Details: Trex HEK293 cells, ANG2 dye; arithmetic mean
Structures can show the parent of a compound that is named as a salt.
Field: IC50. Provide a value for each of the compounds that follow.
Reply with just the number (in µM).

Ask: Quick check: IC50 on NaV1.1 (Homo sapiens (Human)), item Cc1c(N(C)[C@H]2CCN(Cc3cccc(F)c3)C2)cc(F)c(S(=O)(=O)Nc2cscn2)c1F [Example 235, formate] ?
Reply: 10.2

Ask: Under NaV1.1 (Homo sapiens (Human)): IC50 value of Cc1cc(S(=O)(=O)Nc2cscn2)c(F)cc1N(C)[C@H]1CCN(Cc2cccc(O)c2)C1 [Example 114] ?
Reply: 25.9

Ask: Observed IC50 on NaV1.1 (Homo sapiens (Human)) for Cc1c(N(C)[C@H]2CCN(Cc3ccccc3)C2)cc(F)c(S(=O)(=O)Nc2ccsn2)c1F [Example 279, 2,2,2-trifluoroacetate] , please.
Reply: 21.2

// data source = patent US10246453B2
